molecular target: Nuclear receptor ROR-gamma (Mus musculus); test: qHTS for inhibitors of ROR gamma transcriptional activity; details: Drosophila S2 Gal4-RORgamma UAS-luciferase reporter, 20 h; series mostly up to 53.6 µM; also: nearly all actives have a fitted effect of over 60% in size
The whole screen tested about 310,000 compounds, of which about 17,000 (5.5%) were called active. Roughly 11% stayed inconclusive and do not appear here. Calls follow the shape of the dose curve; as a rule, active = well fitted inhibition curve with a large enough effect; inconclusive = small, poorly fitted or top-dose-only effect, or effect the other way; inactive = no such curve, though single readings can be large or run the other way. The full list was thinned out, with actives kept by preference.
Pick from active, inactive when you respond.

Previously resolved entries follow.
Cc1ccc(S(=O)Cc2ccc(C(=O)N3CCN(C4CCCCC4)CC3)o2)cc1 (stereo not given) :: inactive
CCOC(=O)c1cnc(Nc2nc3ccccc3o2)nc1CSC(=S)N1CCCCC1 :: active
CC(C)=CCCC(C)CN1CCC(n2nccc2NC(=O)c2ccccc2)CC1 (stereo not given) :: inactive
CCc1ccc(CNC(=O)C2CCCN(c3nc4ccccc4o3)C2)cc1 (stereo not given) :: inactive

Test call, this compound: COc1ccc(NC(=O)CN2C(=O)COc3ccc(S(=O)(=O)N4CCOCC4)cc32)cc1
inactive

====

target: Nuclear receptor ROR-gamma (Mus musculus); experiment: qHTS for inhibitors of ROR gamma transcriptional activity; conditions: Drosophila S2 Gal4-RORgamma UAS-luciferase reporter, 20 h; series mostly up to 53.6 µM; also: nearly all actives have a fitted effect of over 60% in size
Screen size: about 310,000 compounds; about 17,000 (5.5%) were called active. Roughly 11% stayed inconclusive and do not appear here. The call rests on the fitted dose curve; in most records, active means well fitted inhibition curve with a large enough effect; inconclusive means small, poorly fitted or top-dose-only effect, or effect the other way; inactive means no such curve, though single readings can be large or run the other way. The full list was thinned out, with actives kept by preference.
Parameter call: string, one of active, inactive

Before answering, review these 5 worked examples.
CCOC(=O)c1cc(Sc2ccccc2N)cc(C(=O)OCC)n1 :: inactive
CCOC(=O)c1ccc(N2C(=O)CC(Sc3nc(O)c(CC)c(=O)[nH]3)C2=O)cc1 (stereo not given) :: inactive
CCOC(=O)c1cccc(NC(=O)CN2C(=O)C3CC=CCC3C2=O)c1 (stereo not given) :: inactive
CCS(=O)(=O)c1cc([N+](=O)[O-])c(Sc2ccccc2N)s1 :: active
CCOC(=O)c1c(S(=O)(=O)Nc2ccc(CN3CCC(C)CC3)cc2)c(C)n(C)c1C :: inactive

Recorded call for O=c1[nH]c(CCl)nc2cc(-c3ccc(Cl)cc3)sc12 ?
active

Record request — test call for CC(=O)N1c2ccc(S(=O)(=O)N3CCC(C(=O)NC4CCCC(C)C4C)CC3)cc2CC1C (stereo not given)
inactive

What did the test return for NC(=O)Cc1nc2scc(-c3ccc(Cl)cc3)c2c(=O)[nH]1 ?
inactive

Per the assay record, what outcome was assigned to CC(=O)c1nn(-c2cccc(C(F)(F)F)c2)c(=O)[nH]c1=O ?
inactive

Field: outcome | Entry: COc1ccc(C(CNC(=O)c2cc3c(s2)CCCC3)N2CCOCC2)cc1 (stereo not given)
inactive

====

biological target: Nuclear receptor ROR-gamma (Mus musculus); experiment: qHTS for inhibitors of ROR gamma transcriptional activity; conditions: Drosophila S2 Gal4-RORgamma UAS-luciferase reporter, 20 h; series mostly up to 53.6 µM; also: nearly all actives have a fitted effect of over 60% in size
Out of some 310,000 compounds screened, about 17,000 (5.5%) were called active. About 11% were inconclusive and are not listed. Calls follow the shape of the dose curve; as a rule, active = well fitted inhibition curve with a large enough effect; inconclusive = small, poorly fitted or top-dose-only effect, or effect the other way; inactive = no such curve, though single readings can be large or run the other way. The sample holds actives, similar compounds and a random draw of the others, so the mix is not that of the screen.
I would appreciate it if you answered using one of these outcomes: t (active), f (inactive)

Cc1cc(-n2nc(C)cc2C)n2nc(C)c(-c3ccccc3)c2n1 :: f
O=C(O)c1c(NC(=O)N2CCCC2)sc2c1CCCC2 :: f

Each molecule tested received a call. Report the one for Cc1[nH]c(C)c(S(=O)(=O)N2CCC(C)CC2)c1C(=O)N1CCCC1 .
f

Tell me the recorded outcome of this test for O=C(Cc1ccc(Br)cc1)N1CCN(c2ccccn2)CC1 .
f

GET /call?item= Cc1ccc(Nc2ccccc2N)cc1 returns the recorded outcome of this test.
t

What outcome does the record of this test show for Cc1cc(C)c2c(n1)nn1c(-n3ccnc3)cc(C)nc21 ?
t

Kindly provide the recorded test outcome for the following molecule: COCCN(C(=S)Nc1cccc(Cl)c1C)C(C)c1ccco1 (stereo unspecified)
t

Could you please tell me the result logged for COc1ccc(-c2noc(CCCC(=O)NC3CCCC3)n2)cc1OC in this assay?
f

I would be grateful if you could indicate the recorded call for CCCn1c(C(C)Nc2nc(-c3ccc(C)cc3)cs2)nc2cc(Cl)c(N3CCCCC3)cc21 (stereo unspecified) .
t

Test call for this molecule, please: COc1ccc(NC(=O)CNC(=O)Cc2ccccc2)cc1OC
f

Hi team, can someone confirm the assay call for COc1ccc(CNC(=O)Cc2ccc(-c3ccccc3)cc2)cc1OC ?
f
